The reported numbers originate from patent US20230265116A1.

tested_on: EGFR L858R/T790M/C797S (BaF3-LTC cells) (Homo sapiens, UniProt P00533, C797S/L858R/T790M)
Construct: expressed in transfected cells; host or cells: BaF3
Sequence (P00533 25-1210 T790M/C797S/L858R): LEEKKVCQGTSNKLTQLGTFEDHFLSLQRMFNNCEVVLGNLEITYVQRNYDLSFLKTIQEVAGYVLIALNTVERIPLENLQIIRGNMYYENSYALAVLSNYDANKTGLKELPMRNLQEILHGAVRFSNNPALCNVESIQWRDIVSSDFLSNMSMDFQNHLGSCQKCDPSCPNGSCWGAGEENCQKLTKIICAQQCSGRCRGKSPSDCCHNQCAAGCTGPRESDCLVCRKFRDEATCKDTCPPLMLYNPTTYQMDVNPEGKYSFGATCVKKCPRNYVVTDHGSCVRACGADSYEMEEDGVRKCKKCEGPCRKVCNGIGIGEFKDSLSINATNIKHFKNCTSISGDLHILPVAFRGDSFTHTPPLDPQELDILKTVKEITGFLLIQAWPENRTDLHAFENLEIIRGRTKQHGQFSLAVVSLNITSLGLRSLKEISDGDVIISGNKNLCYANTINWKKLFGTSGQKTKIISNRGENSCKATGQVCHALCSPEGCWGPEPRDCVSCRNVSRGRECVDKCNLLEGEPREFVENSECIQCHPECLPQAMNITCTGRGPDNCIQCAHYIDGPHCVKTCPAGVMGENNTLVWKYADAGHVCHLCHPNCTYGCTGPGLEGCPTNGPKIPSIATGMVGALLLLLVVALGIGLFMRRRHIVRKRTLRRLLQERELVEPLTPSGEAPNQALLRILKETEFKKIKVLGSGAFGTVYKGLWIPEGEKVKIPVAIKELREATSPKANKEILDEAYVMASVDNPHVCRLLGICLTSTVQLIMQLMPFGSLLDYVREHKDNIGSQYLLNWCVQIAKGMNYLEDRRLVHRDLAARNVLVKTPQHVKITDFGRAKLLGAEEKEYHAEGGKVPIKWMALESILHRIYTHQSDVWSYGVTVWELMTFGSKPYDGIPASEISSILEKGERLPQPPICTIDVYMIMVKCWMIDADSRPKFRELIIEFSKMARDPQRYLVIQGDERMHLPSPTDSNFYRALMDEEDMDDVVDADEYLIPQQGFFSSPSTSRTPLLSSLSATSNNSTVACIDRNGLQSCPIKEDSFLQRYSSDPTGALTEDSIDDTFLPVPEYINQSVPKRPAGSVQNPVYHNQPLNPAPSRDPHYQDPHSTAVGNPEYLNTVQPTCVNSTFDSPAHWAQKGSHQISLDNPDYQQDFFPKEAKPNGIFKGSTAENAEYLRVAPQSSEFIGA
experimental_protocol: EGFR degradation HTRF assay, BaF3-LTC cells
Type: cell-based
experimental_conditions: BaF3-LTC cells; EGFR degradation, IC50 (DC50) from curve fit; read-out: DC50(nM) BaF3-LTC
observation_type: DC50 (nM)
Lab book: enter the figure in nM, no units written.

Simply: CCc1ccc2c(P(C)(C)=O)c(Nc3nc(Nc4cc(CC)c(N5CCC(N6CCN(CC7CN(c8cc(F)c(C9CCC(=O)NC9=O)c(F)c8)C7)CC6)CC5)cc4OC)ncc3Br)ccc2n1 (centres unmarked) [Example 508] , EGFR L858R/T790M/C797S (BaF3-LTC cells) (Homo sapiens, UniProt P00533, C797S/L858R/T790M), DC50 = 14.7

The compound CCc1cc(Nc2ncc(Br)c(Nc3ccc4nc(C)ccc4c3P(C)(C)=O)n2)c(OC2CC2)cc1N1CCC(N2CCN(CC3CN(c4cccc5c4oc(=O)n5C4CCC(=O)NC4=O)C3)CC2)CC1 (centres unmarked) [Example 600] on EGFR L858R/T790M/C797S (BaF3-LTC cells) (Homo sapiens, UniProt P00533, C797S/L858R/T790M): DC50 was 4.11

Entry CCc1cc(Nc2ncc(Br)c(Nc3ccc4nc(CO)ccc4c3P(C)(C)=O)n2)c(OC)cc1N1CCC(N2CCN(C(=O)[C@@H]3CCN(c4cc(F)c(C5CCC(=O)NC5=O)c(F)c4)C3)CC2)CC1 (some centres unmarked) [Example 696] , EGFR L858R/T790M/C797S (BaF3-LTC cells) (Homo sapiens, UniProt P00533, C797S/L858R/T790M) data, DC50 value: 4.53

The reported DC50 value, EGFR L858R/T790M/C797S (BaF3-LTC cells) (Homo sapiens, UniProt P00533, C797S/L858R/T790M), for CCc1ccc2c(P(C)(C)=O)c(Nc3nc(Nc4cc(CC)c(N5CCC(N6CCN(CC[C@H]7CCN(c8cc(F)c(C9CCC(=O)NC9=O)c(F)c8)C7)CC6)CC5)cc4OC)ncc3Br)ccc2n1 (some centres unmarked) [Example 650] reads 16

Per the reported EGFR L858R/T790M/C797S (BaF3-LTC cells) (Homo sapiens, UniProt P00533, C797S/L858R/T790M) data, CCc1ccc2c(P(C)(C)=O)c(Nc3nc(Nc4cc(CC)c(N5CCC(N6CCN(CCc7cccc8c7oc(=O)n8C7CCC(=O)NC7=O)CC6)CC5)cc4OC)ncc3Br)ccc2n1 (centres unmarked) [Example 509] has DC50 of 7.93

---

tested_on: EGFR L858R/C797S (BaF3 LC cells) (Homo sapiens, UniProt P00533, C797S/L858R)
Construct: expressed in transfected cells; host or cells: BaF3
Sequence (P00533 25-1210 C797S/L858R): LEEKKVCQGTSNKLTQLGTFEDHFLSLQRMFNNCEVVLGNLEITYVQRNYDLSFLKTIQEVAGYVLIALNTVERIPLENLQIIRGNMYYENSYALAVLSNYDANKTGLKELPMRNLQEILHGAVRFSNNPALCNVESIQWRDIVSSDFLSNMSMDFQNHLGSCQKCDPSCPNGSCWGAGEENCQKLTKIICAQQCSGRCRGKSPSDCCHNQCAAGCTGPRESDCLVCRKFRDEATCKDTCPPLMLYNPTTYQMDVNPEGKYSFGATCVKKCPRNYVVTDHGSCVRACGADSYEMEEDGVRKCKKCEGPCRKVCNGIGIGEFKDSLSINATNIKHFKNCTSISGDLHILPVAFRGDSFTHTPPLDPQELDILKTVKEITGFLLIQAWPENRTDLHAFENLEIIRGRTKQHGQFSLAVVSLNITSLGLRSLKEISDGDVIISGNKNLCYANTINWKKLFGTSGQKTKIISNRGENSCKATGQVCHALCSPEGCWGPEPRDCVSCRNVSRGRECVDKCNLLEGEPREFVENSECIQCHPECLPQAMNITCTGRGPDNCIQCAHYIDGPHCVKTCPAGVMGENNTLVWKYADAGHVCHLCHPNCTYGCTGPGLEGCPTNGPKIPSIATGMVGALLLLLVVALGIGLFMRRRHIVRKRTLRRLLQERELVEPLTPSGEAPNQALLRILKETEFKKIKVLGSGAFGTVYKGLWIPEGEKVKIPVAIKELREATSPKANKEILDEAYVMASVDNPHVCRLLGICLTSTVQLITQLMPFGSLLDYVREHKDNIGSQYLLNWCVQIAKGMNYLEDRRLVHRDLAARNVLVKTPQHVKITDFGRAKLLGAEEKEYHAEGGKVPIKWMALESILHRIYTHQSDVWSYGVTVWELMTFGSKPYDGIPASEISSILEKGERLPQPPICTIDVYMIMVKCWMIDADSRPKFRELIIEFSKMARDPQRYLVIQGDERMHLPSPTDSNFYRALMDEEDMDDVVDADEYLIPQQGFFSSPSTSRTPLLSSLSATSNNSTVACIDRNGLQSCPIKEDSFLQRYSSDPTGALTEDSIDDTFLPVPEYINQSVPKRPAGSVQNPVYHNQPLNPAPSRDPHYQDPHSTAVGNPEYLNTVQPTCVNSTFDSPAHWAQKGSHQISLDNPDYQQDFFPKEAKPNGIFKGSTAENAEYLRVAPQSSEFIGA
experimental_protocol: EGFR degradation HTRF assay, BaF3 LC cells
Type: cell-based
experimental_conditions: BaF3 LC, 16h treatment; read-out: BaF3 LC DC50
# DC50 per record follows
API: value field is a number in nM; no unit string.

See these solved cases before continuing.
CCOc1cc(N2CCC(N3CCN(CCc4cccc5c4C(C)(C)C(=O)N5C4CCC(=O)NC4=O)CC3)CC2)c(CC)cc1Nc1ncc(Br)c(Nc2ccc3c(=O)n(CC)ncc3c2P(C)(C)=O)n1 (stereo not drawn) [Example 501] | 1.49
CCc1cc(Nc2ncc(Br)c(Nc3ccc4c(=O)n(C)ncc4c3P(C)(C)=O)n2)c(OC)cc1N1CCC(N2CCN(C(=O)[C@@H]3CCN(c4cc(F)c([C@H]5CCC(=O)NC5=O)c(F)c4)C3)CC2)CC1 [Example 528] | 14.9

Okay, next one:
Notebook: CCOc1cc(N2CCC(N3CCN(CCc4ccc5c(c4)oc(=O)n5C4CCC(=O)NC4=O)CC3)CC2)c(CC)cc1Nc1ncc(Br)c(Nc2cc(F)c3nc(CC)ccc3c2P(C)(C)=O)n1 (stereo not drawn) [Example 500] , DC50 read as 1.11

---

tested_on: EGFR L858R/T790M/C797S (BaF3-LTC cells) (Homo sapiens, UniProt P00533, C797S/L858R/T790M)
Construct: expressed in transfected cells; host or cells: BaF3
experimental_protocol: EGFR degradation HTRF assay, BaF3-LTC cells
Type: cell-based
experimental_conditions: BaF3-LTC, 16h treatment, maximum percentage of degradation; read-out: LTC Dmax (%)
Description: BaF3 WT(wild type), BaF3-LTC(L858R/T790M/C797S) and BaF3-DTC(Del19/T790M/C797S) cells are treated with compounds diluted in 0.2% DMSO cell culture medium and incubate for 16h, 37° C., 5% CO2, H1975-#36, H1975-#28, H1975-#23 and HCC827 cells are treated with compounds diluted in 0.2% DMSO cell culture medium on day 2, incubate for 16h, 37° C., 5% CO2.the final concentriation of compounds in all assay is start with 10 uM, 5-fold dilution, total 8 doses were included. […]
observation_type: Dmax (%)
Entry rule: numbers only, all in %.

CCc1cc(Nc2ncc(Br)c(Nc3ccc4c(=O)n(C)cnc4c3P(C)(C)=O)n2)c(OC)cc1N1CCC(N2CCN(CCC3CCN(c4cc(F)c(C5CCC(=O)NC5=O)c(F)c4)CC3)CC2)CC1 (stereo not shown) | 91.9
CCc1cc(Nc2ncc(Br)c(Nc3ccc4nc(C)ccc4c3P(C)(C)=O)n2)c(OC)cc1N1CCC(N2CCN([C@H]3C[C@@H](c4cc(F)c(C5CCC(=O)NC5=O)c(F)c4)C3)CC2)CC1 (stereo partly shown) | 91.4
CCc1cc(Nc2ncc(Br)c(Nc3ccc4nccnc4c3P(C)(C)=O)n2)c(OC)cc1N1CCC(N2CCN(C(=O)[C@H]3CCN(c4ccc5c(c4)C(=O)N(C4CCC(=O)NC4=O)C5=O)C3)CC2)CC1 (stereo partly shown) | 86.3
CCc1cc(Nc2ncc(Br)c(Nc3ccc4nccnc4c3P(C)(C)=O)n2)c(OC)cc1N1CCC(N2CCN(C(=O)[C@H]3C[C@H](N(C)c4ccc5c(c4)C(=O)N(C4CCC(=O)NC4=O)C5=O)C3)CC2)CC1 (stereo partly shown) | 83
CCc1cc(Nc2ncc(Br)c(Nc3ccc4nccnc4c3P(C)(C)=O)n2)c(OC)cc1N1CCC(N2CCN(C(=O)[C@@H]3CCN(c4cc(F)c(C5CCC(=O)NC5=O)c(F)c4)C3)CC2)CC1 (stereo partly shown) | 83.4
CCc1cc(Nc2ncc(Br)c(Nc3ccc4nc(C5CC5)ccc4c3P(C)(C)=O)n2)c(OC)cc1N1CCC(N2CCN(CC3CN(c4ccc5c(c4)CN(C4CCC(=O)NC4=O)C5=O)C3)CC2)CC1 (stereo not shown) | 89

--- query ---
Item: CCc1cc(Nc2ncc(Br)c(Nc3ccc4nc(C)ccc4c3P(C)(C)=O)n2)c(OC)cc1N1CCC(N2CCN(C(=O)C3CCN(c4ccc5c(c4)n(C)c(=O)n5C4CCC(=O)NC4=O)CC3)CC2)CC1 (stereo not shown) | Dmax: 90.5

---

System: EGFR Del19/T790M/C797S (H1975-clone #28)
experimental_protocol: EGFR degradation HTRF assay, H1975-clone #28 DTC cells
Assay type: cell-based
experimental_conditions: H1975 # 28 DTC cells; maximum percentage of inhibition (degradation)
observation_type: Dmax (%) H1975 # 28 DTC
Give a bare numeral; the unit % is implied.

CCc1ccc2c(P(C)(C)=O)c(Nc3nc(Nc4cc(CC)c(N5CCC(N6CCN(C(=O)C7CN(c8cccc9c8oc(=O)n9C8CCC(=O)NC8=O)C7)CC6)CC5)cc4OC)ncc3Br)ccc2n1 (stereo not drawn) [Example 446] | 80.48
CCOc1cc(N2CCC(N3CCN(CCc4c(F)ccc5c4n(C)c(=O)n5C4CCC(=O)NC4=O)CC3)CC2)c(CC)cc1Nc1ncc(Br)c(Nc2ccc3nc(CC)ccc3c2P(C)(C)=O)n1 (stereo not drawn) [Example 648] | 81.9

The record that follows has no Dmax (%) H1975 # 28 DTC shown yet.
Consider CCOc1cc(N2CCC(N3CCN(CC4CCN(c5cccc6c5oc(=O)n6C5CCC(=O)NC5=O)CC4)CC3)CC2)c(CC)cc1Nc1ncc(Br)c(Nc2ccc3c(=O)n(CC)ncc3c2P(C)(C)=O)n1 (stereo not drawn) [Example 582] . Its measured Dmax (%) H1975 # 28 DTC is 79.64

---

Measured DC50 accompanies every entry in the list below.
tested_on: EGFR (HCC827 cells) (Homo sapiens, UniProt P00533, DEL746-750)
Construct: endogenous in cells; host or cells: HCC827
Sequence (P00533 with tags, fused parts or gaps DEL746-750): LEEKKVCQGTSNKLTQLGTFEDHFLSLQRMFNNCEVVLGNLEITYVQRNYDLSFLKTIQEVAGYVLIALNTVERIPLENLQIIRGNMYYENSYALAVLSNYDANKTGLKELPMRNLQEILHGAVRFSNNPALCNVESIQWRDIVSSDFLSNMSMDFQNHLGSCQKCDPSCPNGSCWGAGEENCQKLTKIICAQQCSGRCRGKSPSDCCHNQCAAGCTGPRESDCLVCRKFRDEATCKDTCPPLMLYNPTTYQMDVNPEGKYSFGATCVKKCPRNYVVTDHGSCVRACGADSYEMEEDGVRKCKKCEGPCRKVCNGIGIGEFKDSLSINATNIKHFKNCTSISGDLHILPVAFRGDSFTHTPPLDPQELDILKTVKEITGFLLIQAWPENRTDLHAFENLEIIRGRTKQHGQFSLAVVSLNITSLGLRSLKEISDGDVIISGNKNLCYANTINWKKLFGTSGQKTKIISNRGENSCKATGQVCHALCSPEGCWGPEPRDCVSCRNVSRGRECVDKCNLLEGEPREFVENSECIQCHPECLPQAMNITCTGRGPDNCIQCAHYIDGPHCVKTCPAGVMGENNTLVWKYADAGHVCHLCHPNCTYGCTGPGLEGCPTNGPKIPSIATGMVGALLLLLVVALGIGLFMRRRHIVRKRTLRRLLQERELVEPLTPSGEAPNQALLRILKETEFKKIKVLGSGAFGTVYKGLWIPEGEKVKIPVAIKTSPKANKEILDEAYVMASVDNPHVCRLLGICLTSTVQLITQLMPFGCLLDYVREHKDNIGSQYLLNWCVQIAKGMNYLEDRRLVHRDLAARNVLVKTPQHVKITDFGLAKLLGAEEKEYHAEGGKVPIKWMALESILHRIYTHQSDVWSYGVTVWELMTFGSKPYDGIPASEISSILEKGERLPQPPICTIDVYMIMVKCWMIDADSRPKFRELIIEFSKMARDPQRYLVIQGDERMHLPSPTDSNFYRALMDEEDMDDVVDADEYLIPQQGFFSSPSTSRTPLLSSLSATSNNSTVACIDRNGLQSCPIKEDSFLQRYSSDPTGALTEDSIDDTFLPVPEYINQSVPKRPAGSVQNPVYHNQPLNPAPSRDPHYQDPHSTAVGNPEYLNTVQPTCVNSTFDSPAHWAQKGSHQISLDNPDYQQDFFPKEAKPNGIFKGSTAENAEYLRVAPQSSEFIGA
experimental_protocol: EGFR degradation HTRF assay, HCC827 cells
Type: cell-based
experimental_conditions: HCC827, 16h treatment
Please respond with the number in nM and leave the unit unwritten.

CCc1cc(Nc2ncc(Br)c(Nc3ccc4nccnc4c3P(C)(C)=O)n2)c(OC)cc1N1CCC(N2CCN(CCc3cc(F)c(C4CCC(=O)NC4=O)c(F)c3)CC2)CC1 (stereo not drawn) | 2.84
CCc1cc(Nc2ncc(Br)c(Nc3ccc4nccnc4c3P(C)(C)=O)n2)c(OC)cc1N1CCC(N2CCN(CCc3ccc(C4CCC(=O)NC4=O)c(OC)c3)CC2)CC1 (stereo not drawn) | 18
COc1cc(N2CCC(N3CCN(C(=O)CN4CCN(c5ccc6c(c5)C(=O)N(C5CCC(=O)NC5=O)C6)CC4)CC3)CC2)ccc1Nc1ncc(Cl)c(Nc2ccccc2N(C)S(C)(=O)=O)n1 (stereo not drawn) | 45.8
CCc1cc(Nc2ncc(Br)c(Nc3ccc4nccnc4c3P(C)(C)=O)n2)c(OC)cc1N1CCC(N2CCN(C[C@H]3CCN(c4ccc(C5CCC(=O)NC5=O)cc4)C3)CC2)CC1 (stereo partly drawn) | 5.1
COc1cc(N2CCC(N3CCN(C(=O)CCCCN4CCN(c5ccc6c(c5)C(=O)N(C5CCC(=O)NC5=O)C6=O)CC4)CC3)CC2)ccc1Nc1ncc(Cl)c(Nc2ccccc2P(C)(C)=O)n1 (stereo not drawn) | 8.23

Now look at this one.
Note to self: DC50 of `COc1cc(N2CCC(N(C)CCCOc3ccc(N4CCC(=O)NC4=O)cc3)CC2)c(C)cc1Nc1ncc(Br)c(Nc2ccc3nccnc3c2P(C)(C)=O)n1` with EGFR (HCC827 cells) (Homo sapiens, UniProt P00533, DEL746-750) was 73.3
